# System: Macaca fascicularis PRLR (mfPRLR.mmh; SEQ ID NO:403)
# Sequence (as listed by the source): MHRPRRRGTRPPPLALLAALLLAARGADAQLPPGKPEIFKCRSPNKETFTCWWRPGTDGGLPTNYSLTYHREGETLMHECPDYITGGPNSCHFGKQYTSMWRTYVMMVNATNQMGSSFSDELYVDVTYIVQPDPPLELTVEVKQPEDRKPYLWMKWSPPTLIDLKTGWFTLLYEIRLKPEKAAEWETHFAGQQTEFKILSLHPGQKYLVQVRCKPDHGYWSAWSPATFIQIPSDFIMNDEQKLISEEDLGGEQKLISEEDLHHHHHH
# method_notes: Surface plasmon resonance (Biacore T200), antibody-capture format
# Format: binding
# experimental_conditions: 37° C., analyte mfPRLR.mmh
# ka listing for each entry below
Entry rule: numbers only, all in M/s.

H1H6953N: anti-PRLR antibody, human IgG1 Fc form of H1M6953N of Table 1; HCVR/LCVR SEQ ID NOs 274/282 (antibody, V domains shown) VH: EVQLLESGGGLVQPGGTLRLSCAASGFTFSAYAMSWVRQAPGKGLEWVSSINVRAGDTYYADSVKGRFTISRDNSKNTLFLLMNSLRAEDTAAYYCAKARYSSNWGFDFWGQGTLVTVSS VL: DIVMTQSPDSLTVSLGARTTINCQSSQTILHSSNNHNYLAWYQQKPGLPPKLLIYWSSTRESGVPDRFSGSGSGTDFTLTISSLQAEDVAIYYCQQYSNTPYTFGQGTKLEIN    947000

--- query ---
Task: I am curious: what ka value has been reported for H1H6774P: fully human anti-PRLR antibody, human IgG1 Fc; HCVR/LCVR SEQ ID NOs 34/42 (antibody, V domains shown) VH: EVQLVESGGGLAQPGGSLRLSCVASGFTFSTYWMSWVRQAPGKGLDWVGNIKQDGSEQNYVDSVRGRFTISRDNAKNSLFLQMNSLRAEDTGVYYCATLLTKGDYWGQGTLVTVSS VL: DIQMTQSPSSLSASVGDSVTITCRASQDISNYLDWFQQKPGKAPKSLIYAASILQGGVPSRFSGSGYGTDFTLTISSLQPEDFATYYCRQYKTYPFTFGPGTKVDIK ?
Output: 723000
